biological target: NK1 receptor (Cavia porcellus, UniProt P30547); construct: evaluated in guinea pig lungs (Keystone Biologicals, Cleveland, OH); tissue Keystone Biologicals, Cleveland, OH; host or cells: guinea pig lung membranes; test: Antagonism of iodinated tachykinin binding to NK1 receptors (Example A); design: species or system guinea pig
Sequence (P30547 whole entry): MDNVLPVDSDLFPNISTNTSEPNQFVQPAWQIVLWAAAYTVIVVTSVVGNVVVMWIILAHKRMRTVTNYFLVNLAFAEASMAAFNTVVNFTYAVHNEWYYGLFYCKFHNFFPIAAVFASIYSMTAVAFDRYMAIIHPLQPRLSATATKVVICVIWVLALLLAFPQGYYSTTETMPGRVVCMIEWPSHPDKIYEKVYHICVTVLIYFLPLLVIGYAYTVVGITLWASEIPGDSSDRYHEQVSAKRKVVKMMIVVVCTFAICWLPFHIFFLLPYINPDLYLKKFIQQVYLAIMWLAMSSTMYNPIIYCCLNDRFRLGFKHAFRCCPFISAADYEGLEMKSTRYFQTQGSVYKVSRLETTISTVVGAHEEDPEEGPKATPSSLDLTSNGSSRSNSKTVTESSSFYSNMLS
# IC50 annotations
All answers are understood in nM, so give the number only.

Some molecules with known IC50 results, for comparison:
{"molecule": "COc1cc(C(=O)N2CC[C@](CCN3CCC(C(=O)N4CCN(CC(=O)O)CC4)(c4cccnc4)CC3)(c3ccc(Cl)c(Cl)c3)C2)cc(OC)c1OC", "unitOfMeasurement": "nM", "IC50": 16.1}
{"molecule": "CCOC(=O)CN1CCN(C(=O)C2(c3ccccc3)CCN(CCC3(c4ccc(F)c(F)c4)CCN(C(=O)c4cc(OC)c(OC)c(OC)c4)C3)CC2)CC1 (stereo not drawn)", "unitOfMeasurement": "nM", "IC50": 8.41}
{"molecule": "CCOC(=O)CCN1CCN(C(=O)C2(c3ccccc3)CCN(CC[C@]3(c4ccc(Cl)c(Cl)c4)CCN(C(=O)c4cc(OC)c(OC)c(OC)c4)C3)CC2)CC1", "unitOfMeasurement": "nM", "IC50": 9.1}
{"molecule": "CCOC(=O)CN1CCN(C(=O)C2(c3ccccc3)CCN(CC[C@]3(c4ccc(Cl)c(Cl)c4)CCN(C(=O)c4cc(-n5cnnn5)ccc4OC)C3)CC2)CC1", "unitOfMeasurement": "nM", "IC50": 8.42}
{"molecule": "CCOC(=O)CN1CCN(C(=O)C2(c3cccnc3)CCN(CC[C@]3(c4ccc(Cl)c(Cl)c4)CCN(C(=O)c4cc(OC)c(OC)c(OC)c4)C3)CC2)CC1", "unitOfMeasurement": "nM", "IC50": 6.38}

Next, consider the following molecule.
Prompt: Specify IC50 for COC(=O)C1CCCN1C(=O)C1(c2ccccc2)CCN(CCC2(c3ccc(Cl)c(Cl)c3)CCN(C(=O)c3cc(OC)c(OC)c(OC)c3)C2)CC1 (stereo not drawn) and stop.
Response: 4.32
